Let's look at some molecules and their measured IC50.
Test system: IL-2
Assay: Inhibition of IL-2 production in phytohemagglutinin-activated human PBMCs (sandwich ELISA)
Type: cell-based
Conditions: Homo sapiens, PBMC, 46 h, approximately 46 hours, read-out: IL-2 pIC50 (converted)
Description: Peripheral blood mononuclear cells (PBMCs) were isolated from human blood. The lymphocytes, a fraction of the PBMCs, were activated to secrete IL-2 using the polyclonal mitogen phytohemagglutinin. […] After 46 hours the cells were centrifuged down for 25 minutes at 1000×g and the supernatants were transferred to transferred to microtiter wells precoated with a monoclonal antibody against human IL-2. The IL-2 concentration in the supernatants was determined by a sandwich ELISA. […]
Measurement Type: IC50 (µM)

Molecule: Cc1[nH]c(/C=C2\C(=O)Nc3ccccc32)c(C)c1Br [drawing 211]
Unit Info: µM
Numeric Value: 0.0794
//
Molecule: O=C1Nc2ccccc2/C1=C/c1ccc(Cl)cc1
Unit Info: µM
Numeric Value: 0.0794
//
Molecule: COc1ccc(OC)c(/C=C2/C(=O)Nc3ccc(O)cc32)c1
Unit Info: µM
Numeric Value: 0.2
//
Molecule: O=C1Nc2ccccc2/C1=C/c1c[nH]c2ccc(OCc3ccccc3)cc12
Unit Info: µM
Numeric Value: 0.01
//
Molecule: O=C1Nc2ccccc2/C1=C/c1ccc(Cl)cc1Cl
Unit Info: µM
Numeric Value: 0.2
//
Molecule: COc1ccc(/C=C2/C(=O)Nc3ccccc32)c(OC)c1
Unit Info: µM
Numeric Value: 0.002
